system: HIV Env, isolate 1394C9G1(Rev-) (HIV)
testSummary: cell-based or functional assay
For each of the binders below, state its IC80 (µg/ml) with constrains.
A number alone suffices; assume µg/mL.

# input Indicate the recorded IC80 (µg/ml) with constrains value for this binder: ePGDM9 (antibody, V domains shown) VH: QAQLVQSGPEVRKPGTSVKVSCKNPGNTLTTYDLHWVRQVPGQGLQWMGWISHEGDKKVIVERFKAKVTIDWDRSTNTAYLQLSGLTSEDTAVYYCAKGSKHRLRDYALYDEDGALNWAVDVDYLANLEFWGQGTAVTVSS VL: DIVLTQSPLSLSVTPGESASISCKSSQSLIHGDRNNYLAWYVQKPGRSPQLLIDLASERASGVPDRFSGSGSRKDFTLKISRVETEDVGTYYCMQGRESPWTFGQGTKVDIK
# output 0.005

# input Give a short answer stating reported IC80 (µg/ml) with constrains for ePGDM13 (antibody, V domains shown) VH: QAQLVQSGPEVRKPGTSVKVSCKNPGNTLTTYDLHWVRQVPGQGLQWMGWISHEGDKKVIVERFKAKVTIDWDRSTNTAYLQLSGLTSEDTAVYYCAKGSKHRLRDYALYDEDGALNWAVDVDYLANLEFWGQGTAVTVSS VL: DIVLTQSPLSLSVTPGESASISCKSSHSLQHGDRNNYLAWYVQKPGRSPQLLLDLASERASGVPDRFSGSGSEKDFTLKISRVETEDVGTYYCMQGRESPWTFGQGTKVDIK .
# output 0.011

# input State, in one line, measured IC80 (µg/ml) with constrains of PGDM1400 (antibody, V domains shown) VH: QVHLTQSGPEVRKPGTSVKVSCKAPGNTLKTYDLHWVRSVPGQGLQWMGWISHEGDKKVIVERFKAKVTIDWDRSTNTAYLQLSGLTSGDTAVYYCAKGSKHRLRDYALYDDDGALNWAVDVDYLSNLEFWGQGTAVTVSS VL: DFVLTQSPHSLSVTPGESASISCKSSHSLIHGDRNNYLAWYVQKPGRSPQLLIYLASSRASGVPDRFSGSGSDKDFTLKISRVETEDVGTYYCMQGRESPWTFGQGTKVDIK
# output 0.012
